// provenance: patent US20030118612A1

Target: T1, human G-CSF receptor (human, UniProt Q99062 25-836)
T1 sequence (looked up): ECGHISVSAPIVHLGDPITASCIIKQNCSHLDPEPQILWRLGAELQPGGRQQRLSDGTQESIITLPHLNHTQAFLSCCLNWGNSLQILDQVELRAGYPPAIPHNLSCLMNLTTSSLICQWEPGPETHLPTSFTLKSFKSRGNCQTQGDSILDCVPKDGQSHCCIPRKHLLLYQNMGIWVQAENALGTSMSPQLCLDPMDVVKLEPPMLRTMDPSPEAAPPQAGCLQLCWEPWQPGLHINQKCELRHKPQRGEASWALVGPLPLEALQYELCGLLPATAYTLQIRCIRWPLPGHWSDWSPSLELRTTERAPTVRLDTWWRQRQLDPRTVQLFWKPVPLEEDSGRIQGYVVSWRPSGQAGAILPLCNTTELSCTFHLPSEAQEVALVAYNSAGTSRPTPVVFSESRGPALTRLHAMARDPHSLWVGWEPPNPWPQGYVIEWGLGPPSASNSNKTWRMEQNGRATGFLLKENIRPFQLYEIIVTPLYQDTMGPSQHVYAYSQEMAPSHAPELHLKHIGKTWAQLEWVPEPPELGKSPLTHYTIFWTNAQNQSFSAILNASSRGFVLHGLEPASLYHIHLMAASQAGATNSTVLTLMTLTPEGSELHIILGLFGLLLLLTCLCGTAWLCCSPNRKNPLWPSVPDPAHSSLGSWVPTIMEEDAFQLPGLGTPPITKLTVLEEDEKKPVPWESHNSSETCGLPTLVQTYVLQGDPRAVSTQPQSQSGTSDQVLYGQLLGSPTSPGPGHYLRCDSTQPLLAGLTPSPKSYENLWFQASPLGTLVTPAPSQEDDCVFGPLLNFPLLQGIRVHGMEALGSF
Experiment: cell-based or functional assay
Entries and their EC50 (% of hG-CSF) non-conjugated values follow.

binder="G-CSF variant 34R, non-conjugated (ligand) TPLGPASSLPQSFLLKCLEQVRKIQGDGAALQERLCATYKLCHPEELVLLGHSLGIPWAPLSSCPSQALQLAGCLSQLHSGLFLYQGLLQALEGISPELGPTLDTLQLDVADFATTIWQQMEELGMAPALQPTQGAMPAFASAFQRRAGGVLVASHLQSFLEVSYRVLRHLAQP" readout_value="100 % of hG-CSF"

Now look at this entry.
State its EC50 (% of hG-CSF) non-conjugated for this binder: G-CSF variant K16/34/40R T133K, non-conjugated (ligand) TPLGPASSLPQSFLLRCLEQVRKIQGDGAALQERLCATYRLCHPEELVLLGHSLGIPWAPLSSCPSQALQLAGCLSQLHSGLFLYQGLLQALEGISPELGPTLDTLQLDVADFATTIWQQMEELGMAPALQPKQGAMPAFASAFQRRAGGVLVASHLQSFLEVSYRVLRHLAQP
30 % of hG-CSF
